molecular target: human recombinant KDM1A (LSD1)/CoRest (Homo sapiens, UniProt O60341); construct: made in house; host or cells: E. coli; assay: Assay of enzyme inhibition of KDM1A (LSD1), Amplex UltraRed/peroxidase coupled; format: biochemical; conditions: 15 min preincubation, 4.5 μM mono-methylated H3-K4 peptide, range classes, read-out: IC50 [μM], KDM1A inhibition assay
Where a name gives a salt, the structure may show the parent alone.
Exercise: for every item that follows, state its recorded IC50.

Problem: Please list IC50 recorded for the compound N[C@]1(CNCc2ccccc2)C[C@H]1c1ccccc1 (relative stereo) [Example B-3, dihydrochloride]
Solution: 1 to 5 µM

Problem: Please list IC50 recorded for the compound CC[C@@]1(N)C[C@H]1c1ccc(NC(=O)c2ccc(NC(=O)OCc3ccccc3)cc2)c(F)c1 (relative stereo) [Example A-95, hydrochloride]
Solution: 0.1 to 1 µM

Problem: Please list IC50 recorded for the compound CC[C@@]1(N)C[C@H]1c1ccc(OC(F)(F)F)cc1 (relative stereo) [Example A-24, hydrochloride]
Solution: 1 to 5 µM
